Target: T1, human FLT3 protein (human, UniProt P36888 27-541, limits assumed)
T1 construct: protein coated in the screening ELISA; also called ELISA FLT3
Test: colorimetric ELISA, signal over control wells lacking FLT3
The threshold is inclusive: FLT3/control of exactly 10 ratio counts as fulfilled; values below receive not fulfilled.

Query block: Could you please find out whether FLL112 (VHH, llama anti-FLT3 variable domain; E. coli periplasmic extract) VHH: QVQLQESGGGLVQAGGSLRLSCAVSGRTFSGFGTGWFRQAPGKEREFVAAISWAGGRTHYEDSVKGRFTIHRDNAKNTVYLQMNSLKPEDTAVYYCAAQVSRAYDGIWYSGGDYWGQGTQVTVSS has FLT3/control that meets 10 ratio or exceeds it?
Result block: fulfilled

Query block: Could you please find out whether FLL62 (VHH, llama anti-FLT3 variable domain; E. coli periplasmic extract) VHH: QVQLQESGGGLVQAGGSLRLSCAASGSTSSRNYIDWYRQAPGKQREWVAQITSGGNTHYEPSLKGRFTISRDNAKNTAYLQMNSLKPEDTAVYYCRILDYWGQGTQVTVSS has FLT3/control that meets 10 ratio or exceeds it?
Result block: not fulfilled

Query block: Could you please find out whether FLL142 (VHH, llama anti-FLT3 variable domain; E. coli periplasmic extract) VHH: QVQLQESGGGLVQAGGSLRLSCAVSGRTFSGFGTGWFRQAPGKEREFVAAISWDGGRTHYADFVKGRFTISRDNAKNTVYLQMNSLKPEDTAVYYCAAQVARAYDSKWYSGGDYWGQGTQVTVSS has FLT3/control that meets 10 ratio or exceeds it?
Result block: fulfilled

Query block: Could you please find out whether FLL14 (VHH, llama anti-FLT3 variable domain; E. coli periplasmic extract) VHH: QVQLQESGGGLVQAGGSLRLSCAASGVTFSINYIDWYRQAPGKQREWVAQITRDSNSFYADSVKGRFAISRDNAKNTVYLQMNSLKPEDTAVYYCRLLSYWGQGTQVTVSS has FLT3/control that meets 10 ratio or exceeds it?
Result block: not fulfilled

Query block: Could you please find out whether FLL67 (VHH, llama anti-FLT3 variable domain; E. coli periplasmic extract) VHH: QVQLQESGGGLVQLGDSLMVSCAASGGTFSSYATGWFRQVPGKEREFIAGISRSGGRTYYAESVKGRFTISRDNAKNTVYLQMNTLKPDDTAVYYCAAARYFTTSVVYTSGDDYDYWGQGTQVTVSS has FLT3/control that meets 10 ratio or exceeds it?
Result block: fulfilled

Query block: Could you please find out whether FLL43 (VHH, llama anti-FLT3 variable domain; E. coli periplasmic extract) VHH: QVQLQESGGGLVQPGGSLTLSCTASGSTFSINHFAWYRQAPGKQRELVAFISSDGRSTDVESVKGRFTISGDNDKNTAYLQMNGLKPEDTAVYYCYYRGSWGQGTQVTVSS has FLT3/control that meets 10 ratio or exceeds it?
Result block: fulfilled

Query block: Could you please find out whether FLL153 (VHH, llama anti-FLT3 variable domain; E. coli periplasmic extract) VHH: QVQLQESGGGLVQVGGSLMVSCAASGGTFSSYATGWFRQVPGKEREFIAGVSRNSGRTYYAESVKGRFTISRDNAKNTVYLQMNTLKPDDTGVYYCAAARYFTRDAVYTSGDDYDYWGQGTQVTVSS has FLT3/control that meets 10 ratio or exceeds it?
Result block: fulfilled

Query block: Could you please find out whether FLL92 (VHH, llama anti-FLT3 variable domain; E. coli periplasmic extract) VHH: QVQLQESGGGLVQAGGSLMVSCAASGGTWSSYATGWFRQVPGKERELIAGISRSGGRTYYAESVKGRFTISRDNAKNTVYLQMNTLKSDDTAVYYCAAARYFTSSVVYTSGNDYDYWGQGTQVTVSS has FLT3/control that meets 10 ratio or exceeds it?
Result block: fulfilled
